Tested on: 292921-168-R-J2-PDC KRAS tumor spheroid viability;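 note: drug exposure lasted seven days after spheroids formed for three days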
Assay: Anticancer human tumor 292921-168-R-J2-PDC patient-derived pancreatic carcinoma cell line growth inhibition [KRAS2]
Conditions: curve of first compound; second compound 0.1 µM; spheroids with HUVEC and MSC
Measured IC50 by item
Form entry: value (nM) — number only.

Would you please look over these solved cases?
CC(C)NCC(C(=O)N1CCN(c2ncnc3c2C(C)CC3O)CC1)c1ccc(Cl)cc1 (stereo unspecified) + CC1OCC2(CCN(c3cnc(Sc4ccnc(N)c4Cl)c(N)n3)CC2)C1N = 5030
CC1OCC2(CCN(c3cnc(Sc4ccnc(N)c4Cl)c(N)n3)CC2)C1N (stereo unspecified) + C=CC(=O)N1CCN(c2nc(OCC3CCCN3C)nc3c2CCN(c2cccc4cccc(C)c24)C3)CC1CC#N = 227
Cn1nccc1Nc1nccc(-c2cc3c(s2)C(C)(C)N(CCN2CCOCC2)C3=O)n1 + C=CC(=O)N1CCN(c2nc(=O)n(-c3c(C)ccnc3C(C)C)c3nc(-c4c(O)cccc4F)c(F)cc23)C(C)C1 = 122

If you can, please state the reported IC50 value of CC(=O)Nc1cccc(-n2c(=O)n(C3CC3)c(=O)c3c(Nc4ccc(I)cc4F)n(C)c(=O)c(C)c32)c1 + C=CC(=O)N1CCN(c2nc(=O)n(-c3c(C)ccnc3C(C)C)c3nc(-c4c(O)cccc4F)c(F)cc23)C(C)C1 . 0.34

If you can, please state the reported IC50 value of CC1(C)CCC(CN2CCN(c3ccc(C(=O)NS(=O)(=O)c4ccc(NCC5CCOCC5)c([N+](=O)[O-])c4)c(Oc4cnc5[nH]ccc5c4)c3)CC2)=C(c2ccc(Cl)cc2)C1 + COc1cc2nc(C)nc(NC(C)c3cc(N)cc(C(F)(F)F)c3)c2cc1OC1CCOC1 . 2090

If you can, please state the reported IC50 value of COc1cc2nccc(Oc3ccc(NC(=O)C4(C(=O)Nc5ccc(F)cc5)CC4)cc3)c2cc1OC + CC1OCC2(CCN(c3cnc(Sc4ccnc(N)c4Cl)c(N)n3)CC2)C1N . 1610

If you can, please state the reported IC50 value of CCNC(=O)CC1N=C(c2ccc(Cl)cc2)c2cc(OC)ccc2-n2c(C)nnc21 (stereo unspecified) + CC1OCC2(CCN(c3cnc(Sc4ccnc(N)c4Cl)c(N)n3)CC2)C1N . 287

If you can, please state the reported IC50 value of CC1OCC2(CCN(c3cnc(Sc4ccnc(N)c4Cl)c(N)n3)CC2)C1N (stereo unspecified) + CNCc1ccccc1-c1csc(C(C)Nc2nc(C)nc3cc(OC)c(OC)cc23)c1 . 296
